Listing: IC50 of selected compounds
# Target Or Test System: mGluR5 (Homo sapiens, UniProt P41594)
# Sequence (P41594 21-1212): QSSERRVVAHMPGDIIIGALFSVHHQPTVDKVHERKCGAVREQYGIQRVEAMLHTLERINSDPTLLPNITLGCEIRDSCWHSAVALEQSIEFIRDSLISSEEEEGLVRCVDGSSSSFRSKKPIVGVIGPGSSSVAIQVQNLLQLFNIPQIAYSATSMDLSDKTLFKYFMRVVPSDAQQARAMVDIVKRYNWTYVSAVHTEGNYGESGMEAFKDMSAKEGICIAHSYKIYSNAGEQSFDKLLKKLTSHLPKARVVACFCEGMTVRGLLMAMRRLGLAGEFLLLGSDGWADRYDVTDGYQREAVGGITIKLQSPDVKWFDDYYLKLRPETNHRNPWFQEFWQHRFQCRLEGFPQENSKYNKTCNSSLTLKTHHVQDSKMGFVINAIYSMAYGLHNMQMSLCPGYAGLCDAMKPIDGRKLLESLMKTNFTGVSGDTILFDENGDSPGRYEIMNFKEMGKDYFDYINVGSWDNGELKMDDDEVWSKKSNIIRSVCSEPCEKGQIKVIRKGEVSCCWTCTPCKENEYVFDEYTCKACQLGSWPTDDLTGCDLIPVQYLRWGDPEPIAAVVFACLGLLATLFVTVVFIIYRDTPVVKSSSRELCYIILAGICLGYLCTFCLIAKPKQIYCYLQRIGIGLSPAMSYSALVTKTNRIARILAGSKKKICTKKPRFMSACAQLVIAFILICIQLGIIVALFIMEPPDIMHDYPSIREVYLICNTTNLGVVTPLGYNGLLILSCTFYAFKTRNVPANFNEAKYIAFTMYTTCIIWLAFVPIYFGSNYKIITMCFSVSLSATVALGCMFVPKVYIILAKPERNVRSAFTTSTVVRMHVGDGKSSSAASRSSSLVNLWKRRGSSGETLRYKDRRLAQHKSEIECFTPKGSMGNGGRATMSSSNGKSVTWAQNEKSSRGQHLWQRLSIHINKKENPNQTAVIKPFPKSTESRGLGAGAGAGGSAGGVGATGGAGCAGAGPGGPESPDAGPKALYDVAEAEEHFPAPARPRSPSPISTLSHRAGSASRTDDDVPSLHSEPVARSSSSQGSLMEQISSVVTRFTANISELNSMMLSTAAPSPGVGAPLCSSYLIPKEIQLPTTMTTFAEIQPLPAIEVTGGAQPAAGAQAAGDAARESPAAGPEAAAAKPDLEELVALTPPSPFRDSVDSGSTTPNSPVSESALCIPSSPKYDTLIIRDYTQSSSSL
# Method: Fluorescence-based Ca2+ mobilization assay
# Stated Conditions: HEK293 cells overexpressing mGluR5; L-glutamate at EC80

compound=O=C(NCC1(NCC(F)(F)F)CCCCC1)c1ccc(C#Cc2ccncc2)cc1 result="1000 to 2000 nM"
compound=O=C(NCC1(O)COC1)c1ccc(C#Cc2ccccc2F)cc1 result="500 to 1000 nM"
compound=NC(=O)CC1(CNC(=O)c2ccc(C#Cc3ccccc3F)cc2)CCOCC1 result="100 to 500 nM"
compound=O=C(NCC1(F)CCCCC1)c1ccc(C#Cc2ccc(F)cc2F)cc1 result="< 100 nM"

# context switch: different compound, same IC50
Data request: Give IC50 for O=C(NCC1(NC2CC2)CCCC1)c1ccc(C#Cc2ccccc2F)cc1
Data returned: 100 to 500 nM

====

# Target Or Test System: mGluR5 (Homo sapiens, UniProt P41594)
# Method: Fluorescence-based Ca2+ mobilization assay
# Stated Conditions: HEK293 cells overexpressing mGluR5; L-glutamate at EC80
Listing of recorded IC50 by entry.

smiles_record=O=C(NCC1(NC2CC2)CCC1)c1ccc(C#Cc2ccncc2)c(F)c1 target_or_test_system="mGluR5 (Homo sapiens, UniProt P41594)" measure_name=IC50 result="1000 to 2000 nM"
smiles_record=O=C(NCC1(F)COC1)c1ccc(C#Cc2ccccc2F)cc1 target_or_test_system="mGluR5 (Homo sapiens, UniProt P41594)" measure_name=IC50 result="1000 to 2000 nM"
smiles_record=O=C(NCC1(F)COC1)c1ccc(C#Cc2ccc(F)cc2F)cc1 target_or_test_system="mGluR5 (Homo sapiens, UniProt P41594)" measure_name=IC50 result="500 to 1000 nM"

Data request: Determine from records and report IC50 for CCC1(CNC(=O)c2ccc(C#Cc3ccccc3F)cc2)COC1
Data returned: < 100 nM

Data request: Determine its reported IC50: CC1(CNC(=O)c2ccc(C#Cc3ccccc3F)cc2)CCOCC1
Data returned: < 100 nM

Data request: Fill in IC50 for record O=C(NC[C@@H]1CCOC1)c1ccc(C#Cc2ccc(F)cc2)cc1
Data returned: 100 to 500 nM

====

# Target Or Test System: human 5-HT2AR (Homo sapiens, UniProt P28223)
# Sequence (P28223 whole entry): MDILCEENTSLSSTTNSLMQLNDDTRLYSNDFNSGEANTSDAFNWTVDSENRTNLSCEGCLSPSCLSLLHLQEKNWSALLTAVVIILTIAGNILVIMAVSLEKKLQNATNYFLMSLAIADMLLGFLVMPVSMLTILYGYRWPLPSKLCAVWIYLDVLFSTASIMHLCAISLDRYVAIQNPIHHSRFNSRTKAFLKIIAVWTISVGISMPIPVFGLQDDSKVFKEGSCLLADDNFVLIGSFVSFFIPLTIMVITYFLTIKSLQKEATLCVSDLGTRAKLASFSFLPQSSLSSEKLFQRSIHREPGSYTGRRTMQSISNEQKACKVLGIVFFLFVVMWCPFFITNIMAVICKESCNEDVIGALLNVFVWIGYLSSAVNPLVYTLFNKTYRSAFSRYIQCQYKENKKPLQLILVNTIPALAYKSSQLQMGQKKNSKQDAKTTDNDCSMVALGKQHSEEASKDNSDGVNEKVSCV
# Method: HTRF-based IP1 accumulation assay (5-HT2AR antagonistic effect)
# Stated Conditions: HEK293 cells overexpressing human 5-HT2AR; serotonin at EC80
Measure Name: IC50

Examples from the recorded data:
compound="O=C(NCC1CC(F)(F)C1)c1ccc(C#Cc2ccncc2)cc1 [Example 89]" result="100 to 500 nM"
compound="O=C(NCC1CCOCC1)c1ccc(C#Cc2ccc(F)cc2F)cc1 [Example 44]" result="< 100 nM"
compound="O=C(NCC1(CC2CC2)CCOCC1)c1ccc(C#Cc2ccccc2F)cc1 [Example 29]" result="100 to 500 nM"

Data request: Report value: IC50, system: human 5-HT2AR (Homo sapiens, UniProt P28223), compound: CC(C)NC1(CNC(=O)c2ccc(C#Cc3ccccc3F)cc2)CCCCC1 [Example 25]
Data returned: < 100 nM

Data request: Enter IC50 (test system human 5-HT2AR (Homo sapiens, UniProt P28223)) for CC1(CNC(=O)c2ccc(C#Cc3ccccc3F)cc2)CCC1 [Example 105]
Data returned: 500 to 1000 nM

Hello, the source for this data is patent US12435051B2, in case you need it.
